# maps each entry to its IC50
System: macrophages
test summary: Cytotoxicity assay (MTT), macrophages
Assay type: cell-based, BALB/c mouse
test settings: Mus musculus, Macrophage; 72 h, mean ± SD; read-out: IC50 macro
experimental readout: IC50

compound=CCOC(=O)C1=C(C)NC(C)=C(C(=O)OCC)C1c1cccc(F)c1 result_value="> 59.9 µM"
compound=CCOC(=O)C1=C(C)NC(C)=C(C(=O)OCC)C1c1ccccc1 result_value="> 63.1 µM"
compound="CCOC(=O)C1=C(C)NC2=C(C(=O)CC(C)(C)C2)C1c1cc(OC)c(OC)c(OC)c1 (stereo not drawn)" result_value="> 48.4 µM"

----------
compounds and their reported EC50
Test system: T. gondii tachyzoites (RH strain)
test summary: Anti-Toxoplasma activity (infection index in Vero cells, 72 h)
Type: cell-based, Toxoplasma gondii
test settings: Toxoplasma gondii, Vero, mean ± SD
experimental readout: EC50

compound="CCOC(=O)C1=C(C)NC2=C(C(=O)CC(C)(C)C2)C1c1cccc(F)c1 (centres unmarked) [Compound 7]" result_value="> 58.2 µM"
compound="CCOC(=O)C1=C(C)NC2=C(C(=O)CC(C)(C)C2)C1c1cccs1 (centres unmarked) [Compound 16]" result_value="8.1 µM"
compound="CCOC(=O)C1=C(C)NC(C)=C(C(=O)OCC)C1c1ccc(Br)cc1 [Compound 20]" result_value="> 50.9 µM"
compound="CCOC(=O)C1=C(C)NC(C)=C(C(=O)OCC)C1c1ccc(OCc2ccccc2)cc1 [Compound 19]" result_value="> 47.8 µM"
compound="CCOC(=O)C1=C(C)NC(C)=C(C(=O)OCC)C1c1cc(OC)c(OC)c(OC)c1 [Compound 24]" result_value="> 49.6 µM"

----------
Test system: Vero cells
test summary: Cytotoxicity assay (MTT), Vero cells
Type: cell-based, African Green Monkey
test settings: Chlorocebus sabaeus, 72 h, mean ± SD
pIC50: −log10 of the molar value.
The molecules listed here are annotated with their pIC50.
experimental readout: pIC50

molecule="CCOC(=O)C1=C(C)NC2=C(C(=O)CC(C)(C)C2)C1c1ccccc1 (stereo not shown)" censoring_operator=< result_value=4.21
molecule="CCOC(=O)C1=C(C)NC2=C(C(=O)CC(C)(C)C2)C1c1ccc(C)cc1 (stereo not shown)" censoring_operator== result_value=4.28
molecule=CCOC(=O)C1=C(C)NC(C)=C(C(=O)OCC)C1c1ccccc1 censoring_operator== result_value=4.22
molecule=CCOC(=O)C1=C(C)NC(C)=C(C(=O)OCC)C1c1cccc(F)c1 censoring_operator=< result_value=4.22
molecule=CCOC(=O)C1=C(C)NC(C)=C(C(=O)OCC)C1c1cccc([N+](=O)[O-])c1 censoring_operator== result_value=4.52
molecule="CCOC(=O)C1=C(C)NC2=C(C(=O)CC(C)(C)C2)C1c1ccc(OCc2ccccc2)cc1 (racemic)" censoring_operator== result_value=4.76
molecule="CCOC(=O)C1=C(C)NC2=C(C(=O)CC(C)(C)C2)C1c1cc(OC)c(OC)c(OC)c1 (stereo not shown)" censoring_operator=< result_value=4.32

----------
Reported values of pIC50 for individual entries
System: macrophages
test summary: Cytotoxicity assay (MTT), macrophages
Assay type: cell-based, BALB/c mouse
test settings: Mus musculus, Macrophage; 72 h, mean ± SD; read-out: IC50 macro
pIC50: −log10 of the molar value.
experimental readout: pIC50

compound="CCOC(=O)C1=C(C)NC2=C(C(=O)CC(C)(C)C2)C1c1ccco1 (centres unmarked)" experimental_readout=pIC50 result_value="< 4.29"
compound="CCOC(=O)C1=C(C)NC2=C(C(=O)CC(C)(C)C2)C1c1ccccc1 (centres unmarked)" experimental_readout=pIC50 result_value="< 4.21"
compound="CCOC(=O)C1=C(C)NC2=C(C(=O)CC(C)(C)C2)C1c1cccc(F)c1 (centres unmarked)" experimental_readout=pIC50 result_value="< 4.24"
compound="CCOC(=O)C1=C(C)NC2=C(C(=O)CC(C)(C)C2)C1c1cccc(Cl)c1 (centres unmarked)" experimental_readout=pIC50 result_value="< 4.25"
compound=CCOC(=O)C1=C(C)NC(C)=C(C(=O)OCC)C1c1ccc(OC)cc1 experimental_readout=pIC50 result_value="< 4.24"

Origin of the recorded values: paper PMC12290673
